measurement.notes: Metabolite identification, dog liver cytosol incubation of parent compound
Assay type: in vitro ADME
run.conditions: parent incubated one hour
Experimental: Cytosol: 1-{2-[5-(3-Methyl-oxetan-3-ylmethoxy)-benzoimidazol-1-yl]-quinolin-8-yl}-piperidin-4-ylamine (10 μM) was incubated and prepared for analysis. […] A 10 μL reconstituted aliquot was analyzed by LC/MS/MS. […] All Samples were analyzed by a Finnigan TSQ7000 mass spectrometer operated in positive ion mode with in-line ultraviolet detection (Shimadzu, λ=254 nm). […]
property.label: Relative Abundance of metabolite, Dog Liver Cytosol

compound	reported.value
NC1CCN(c2cccc3ccc(-n4cnc5cc(O)ccc54)nc23)CC1 [Metabolite M8]	−
CC(CO)(COc1ccc2c(c1)ncn2-c1ccc2cccc(N3CCC(N)CC3)c2n1)COC1O[C@H](C(=O)O)[C@@H](O)[C@H](O)[C@H]1O (stereo in doubt) [Metabolite M5]	−
CC(CO)(COc1ccc2c(c1)ncn2-c1ccc2cccc(N3CCC(N)CC3)c2n1)C(=O)O (stereo not shown) [Metabolite M2]	−
